// provenance: PubChem BioAssay (NCI)

Tested on: HL-60(TB) leukemia
Assay: NCI tumour cell line growth inhibition, 48 h
Reported TGI by item:

Take a look at these entries with their results.
> print(dat)
                                   compound  measure.name  assay.result
1        N#CCCOc1cccc(C2(N3CCCCC3)CCCCC2)c1           TGI      > 100 µM
2             CC(=O)N1CCc2[nH]c3ccccc3c2CC1           TGI      > 100 µM
3   Nc1cc2c([nH]c[n+]2CC#CCCl)c(SCC#CCCl)n1           TGI       2.64 µM
4  CCOC(=O)NC1C2CC(=O)C(O2)C1OCc1ccccc1 (stereo unspecified)           TGI      > 100 µM
5      C/C(=N\NC(=O)Nc1ccccc1Cl)c1ccc(O)cc1           TGI      > 100 µM

(Q) Name the reported TGI value associated with the compound O=C1/C(=C/c2ccccc2)CN(C(=O)C(F)(F)F)C/C1=C\c1ccccc1
(A) 2.85 µM
